- Subject of test: HLA-DRB1*11:01 (Homo sapiens, UniProt P01903+P01911, A100R/A169T/A87E/I96F/K41T/L162R/M171V/P40S/Q125H/Q178H/Q39Y/Q99D/R42S/S66Y/T262R/V115G/W38E)
- Sequence (P01903 26-254 limits assumed, other chains not shown): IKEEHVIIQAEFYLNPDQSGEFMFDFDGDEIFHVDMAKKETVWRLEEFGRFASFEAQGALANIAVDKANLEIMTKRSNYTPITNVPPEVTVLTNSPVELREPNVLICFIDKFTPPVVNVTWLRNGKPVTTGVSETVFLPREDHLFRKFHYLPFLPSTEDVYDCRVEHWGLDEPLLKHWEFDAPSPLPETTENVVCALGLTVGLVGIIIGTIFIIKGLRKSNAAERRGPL
- Protocol notes: biochemical
pIC50: −log10 of the molar value.
Below: a set of entries, each annotated with reported pIC50.
Experimental endpoint: pIC50

INSERT INTO assay_data (compound, recorded_result) VALUES
  ('CC(C)[C@H](NC(=O)CNC(=O)[C@H](Cc1ccc(O)cc1)NC(=O)[C@H](CS)NC(=O)[C@H](CCCCN)NC(=O)[C@H](Cc1ccccc1)NC(=O)[C@@H](NC(=O)[C@H](CO)NC(=O)[C@H](Cc1ccccc1)NC(=O)[C@H](CO)NC(=O)[C@H](C)NC(=O)[C@@H](N)CO)[C@@H](C)O)C(=O)N[C@@H](CO)C(=O)N1CCC[C@H]1C(=O)N[C@H](C(=O)O)[C@@H](C)O [peptide 75]', 6.20),
  ('CC[C@H](C)[C@H](NC(=O)[C@H](CCCNC(=N)N)NC(=O)[C@H](CCCCN)NC(=O)[C@H](CCCNC(=N)N)NC(=O)[C@H](CC(N)=O)NC(=O)[C@H](Cc1c[nH]c2ccccc12)NC(=O)[C@H](C)NC(=O)[C@H](Cc1ccc(O)cc1)NC(=O)[C@@H](NC(=O)[C@H](CO)NC(=O)[C@H](C)NC(=O)[C@H](Cc1ccccc1)NC(=O)[C@@H](N)CCCNC(=N)N)C(C)C)C(=O)N[C@@H](CO)C(=O)N[C@@H](CC(N)=O)C(=O)O [compound 70]', 8.41),
  ('CC[C@H](C)[C@H](NC(=O)[C@H](Cc1ccccc1)NC(=O)[C@@H](N)CO)C(=O)N[C@@H](CCC(=O)O)C(=O)N[C@@H](CC(=O)O)C(=O)N[C@@H](CC(C)C)C(=O)N[C@@H](CC(C)C)C(=O)N[C@@H](Cc1ccccc1)C(=O)N[C@@H](CC(N)=O)C(=O)N[C@@H](CCCCN)C(=O)N[C@H](C(=O)N[C@H](C(=O)N[C@@H](CC(C)C)C(=O)N[C@@H](C)C(=O)N[C@@H](CC(=O)O)C(=O)O)[C@@H](C)O)C(C)C [peptide 164]', 4.88),
  ('CC[C@H](C)[C@H](NC(=O)[C@H](CC(=O)O)NC(=O)CNC(=O)[C@H](CC(C)C)NC(=O)[C@H](CS)NC(=O)[C@H](CC(=O)O)NC(=O)CNC(=O)[C@H](Cc1ccc(O)cc1)NC(=O)[C@H](CCC(N)=O)NC(=O)[C@H](CCCCN)NC(=O)[C@@H](NC(=O)[C@H](Cc1ccccc1)NC(=O)CNC(=O)[C@H](C)N)[C@@H](C)CC)C(=O)N[C@@H](C)C(=O)O [peptide 167]', 5.43),
  ('CC(C)C[C@H](NC(=O)[C@H](C)NC(=O)[C@H](CC(C)C)NC(=O)[C@H](CC(C)C)NC(=O)[C@@H](NC(=O)[C@H](CCC(N)=O)NC(=O)[C@H](Cc1ccccc1)NC(=O)[C@H](CCCNC(=N)N)NC(=O)[C@@H](N)[C@@H](C)O)[C@@H](C)O)C(=O)N[C@@H](Cc1c[nH]cn1)C(=O)N[C@@H](CCCNC(=N)N)C(=O)N[C@@H](CO)C(=O)N[C@@H](Cc1ccc(O)cc1)C(=O)N[C@@H](CC(C)C)C(=O)N[C@H](C(=O)O)[C@@H](C)O [peptide 48]', 7.85);
